For each of the compounds below, state its growth.
# Test system: SK-OV-3 ovarian
# ASSAY COMMENT: NCI-60 one-dose screen, 48 h (100 = growth as untreated, 0 = no growth, -100 = all killed)
# CONDITIONS: 10 µM
This is part of a sample that, as a whole, favours compounds with a hit. Of some 83,000 tested, about 20% had one in any assay.
Write down the numeric answer in % and omit the unit.

Query: Determine from records and report growth for O=[N+]([O-])c1cccc(N=Cc2ccc3c(c2)OCO3)c1
Reply: 110

Query: Determine from records and report growth for COc1cc(C(=O)N2CCN(c3ccccc3OC)CC2)c(N)cc1OCCCN1CCN(c2ccccc2OC)CC1
Reply: 75.4

Query: Determine from records and report growth for CCN(CC)CCOc1nc2ccc(OC)cc2c2c1-c1ccc(OC)cc1C2=O
Reply: 30.9

====

# Tested on: SW-620 colon
# ASSAY COMMENT: NCI-60 one-dose screen, 48 h
# CONDITIONS: 10 µM
This is part of a sample that, as a whole, favours compounds with a hit. Of some 83,000 tested, about 20% had one in any assay. Calls of active or inactive are those of the source. The calls were made as follows: active = growth percent below 10; inactive = the rest.
Field 'call' accepts label 1 = active, label 0 = inactive

Query: Could you kindly confirm the outcome this assay logged for CCc1ccc2c(c1)N(CCO)C1=C(C(=O)OC1)C2c1cc(OC)c(OC)c(OC)c1 (stereo unspecified) ?
Reply: label 0

Query: Could you kindly confirm the outcome this assay logged for CS(=O)(=O)Nc1ccc(Nc2c3ccccc3nc3cc([N+](=O)[O-])ccc23)cc1 ?
Reply: label 1

Query: Could you kindly confirm the outcome this assay logged for COc1cc(-c2cc(/C=C3\C(=O)Nc4ccc(Cl)cc43)[nH]n2)cc(OC)c1OC ?
Reply: label 0

Query: Could you kindly confirm the outcome this assay logged for COc1ccc(-c2nn(-c3cccc(NC(=O)Nc4cc(C(F)(F)F)cc(C(F)(F)F)c4)c3)cc2-c2ccncc2)cc1Cl ?
Reply: label 0

Query: Could you kindly confirm the outcome this assay logged for COc1ccc(-c2csc(NC(=O)CSc3nc(C)c(-c4ccccc4)n3Nc3ccccc3)n2)cc1 ?
Reply: label 0

Query: Could you kindly confirm the outcome this assay logged for COc1ccc(/C=C/C(=O)Nc2ccc(-c3nc4ccc(F)cc4s3)cc2)cc1 ?
Reply: label 0

Query: Could you kindly confirm the outcome this assay logged for O=C(Nc1ccc(OS(=O)(=O)c2ccccc2)cc1)C12CC3CC(CC(C3)C1)C2 ?
Reply: label 1

Query: Could you kindly confirm the outcome this assay logged for COc1ccc(-c2nn(-c3cccc(NC(=O)Nc4ccc(Cl)c(C(F)(F)F)c4)c3)cc2-c2ccncc2)cc1Cl ?
Reply: label 0

Query: Could you kindly confirm the outcome this assay logged for Cc1cccc(Cl)c1NC(=O)c1ccc2nc(NC(=O)NC3CCN(C)CC3)sc2c1 ?
Reply: label 0

Query: Could you kindly confirm the outcome this assay logged for CCN(CC)CCC(=O)Nc1cccc2c1C(=O)c1c(c(O)c3ccccc3c1O)C2=O ?
Reply: label 0

Query: Could you kindly confirm the outcome this assay logged for O=C(c1cccs1)c1ccccc1Cc1ccccc1 ?
Reply: label 0

Query: Could you kindly confirm the outcome this assay logged for CC[C@H]1CCC/C=C/[C@@H]2C[C@H](O)C[C@H]2[C@H](O)/C=C/C(=O)O1 ?
Reply: label 1

Query: Could you kindly confirm the outcome this assay logged for FC(F)(F)c1ccc2nc(-c3nc(-c4ccccc4)n4ccccc34)[nH]c2c1 ?
Reply: label 0

Query: Could you kindly confirm the outcome this assay logged for N=C(N)c1ccc(-c2ccc(-c3ccco3)o2)cc1 ?
Reply: label 0

Query: Could you kindly confirm the outcome this assay logged for CSCCCNC(=O)c1ccc2c(c1)/C(=C/c1[nH]c(C)cc1C)C(=O)N2 ?
Reply: label 0

Query: Could you kindly confirm the outcome this assay logged for COc1ccc(-c2nsc3c2NC(=O)CC3c2ccc(F)cc2)cc1 (stereo unspecified) ?
Reply: label 0

Query: Could you kindly confirm the outcome this assay logged for CN1CCC(CNc2cc(C3(C(=O)Nc4cc(C(=O)Nc5ccc(Cl)c(C(F)(F)F)c5)ccc4F)CC3)ncn2)CC1 ?
Reply: label 1

Query: Could you kindly confirm the outcome this assay logged for CCN(CC)CCSCCCNc1c2ccc(Cl)cc2nc2ccc(OC)cc12 ?
Reply: label 1

Query: Could you kindly confirm the outcome this assay logged for COc1cc(Cl)cc(-c2nn(-c3cccc(NC(=O)Nc4cc(C(F)(F)F)cc(C(F)(F)F)c4)c3)cc2-c2ccncc2)c1 ?
Reply: label 1

Query: Could you kindly confirm the outcome this assay logged for COc1cc(-c2cc(/C=C/C(=O)c3ccc4c(c3)OCO4)[nH]n2)cc(OC)c1OC ?
Reply: label 0

Query: Could you kindly confirm the outcome this assay logged for c1ccc(CSc2nnc3c4c5c(sc4nc(-c4cccnc4)n23)CCCCCC5)cc1 ?
Reply: label 0

Query: Could you kindly confirm the outcome this assay logged for CN(C)C(=S)N/N=C\C=N/NC(=S)N(C)C ?
Reply: label 0

Query: Could you kindly confirm the outcome this assay logged for Cc1ccc(S(=O)(=O)Oc2ccc3c4c(c(=O)oc3c2)CCCCC4)cc1 ?
Reply: label 0

Query: Could you kindly confirm the outcome this assay logged for COc1ccc(NC2=NC(C)(CO)CS2)cc1 (stereo unspecified) ?
Reply: label 0

Query: Could you kindly confirm the outcome this assay logged for CN(C)CCCn1c(=O)c2ccccc2c2cnc3[nH]ccc3c21 ?
Reply: label 1

Query: Could you kindly confirm the outcome this assay logged for CCCCCCCCCCCCCCCCCCOCC(COCCOCC[N+]1(CCCCCC(=O)[O-])CCCC1)Oc1ncccn1 (stereo unspecified) ?
Reply: label 0

Query: Could you kindly confirm the outcome this assay logged for CCCCC/C=C/C(=O)CCc1ccc(O)c(OC)c1 ?
Reply: label 0

Query: Could you kindly confirm the outcome this assay logged for COc1ccc(-c2nn(-c3cccc(NC(=O)c4ccc(N5CCOCC5)c(C(F)(F)F)c4)c3)cc2-c2ccncc2)cc1Cl ?
Reply: label 0

Query: Could you kindly confirm the outcome this assay logged for O=C(CCCCCCC(=O)Nc1cccnc1)NO ?
Reply: label 0

Query: Could you kindly confirm the outcome this assay logged for CC1CC(=O)OC(C)C1 (stereo unspecified) ?
Reply: label 0

Query: Could you kindly confirm the outcome this assay logged for O=C(/C(=C/c1ccccc1)CN1CCCCC1)c1ccccc1 ?
Reply: label 1
